test: Antagonist activity at integrin alpha2b beta3 receptor in citrated human platelet-rich plasma assessed as inhibition of ADP-induced platelets aggregation preincubated for 15 mins followed by ADP addition measured for 8 mins by aggregometric analysis
metric: pIC50
Would you please state pIC50, meaning minus log10 of the concentration in mol/L, as a bare number?

Given the entry CCc1nn2c(=O)cc(N3CCNCC3)nc2s1 , report its measured pIC50.
5.01

###

test: Inhibition of alpha5 beta1 integrin (unknown origin) by cell proliferation assay
metric: pIC50
Would you please state pIC50, meaning minus log10 of the concentration in mol/L, as a bare number?

Given the entry O=c1c(C2NCCc3c2[nH]c2ccccc32)c(O)[nH]c(=S)n1Cc1ccc(F)cc1 (stereo unspecified) , report its measured pIC50.
4.69

###

test: Inhibition of alpha5 beta1 integrin (unknown origin) by cell migration assay
metric: pIC50
Would you please state pIC50, meaning minus log10 of the concentration in mol/L, as a bare number?

Given the entry O=c1c(C2NCCc3c2[nH]c2ccccc32)c(O)[nH]c(=S)n1Cc1ccc(F)cc1 (stereo unspecified) , report its measured pIC50.
4.81
